Just for reference, ChEMBL document CHEMBL3826915 is where these values come from.

Let's look at some compounds and their measured selectivity ratio.
Assay: Protective index, ratio of TD50 for neurotoxicity in ip dosed albino CF1 mouse to ED50 for anticonvulsant activity in ip dosed […] metrazol-induced seizure albino CF1 mouse model
Assay type: toxicity, organism-based
Conditions: in vivo, read-out: Ratio TD50/ED50
ENDPOINT NAME: selectivity ratio

- CCCC(C(N)=O)C(C)CC (stereo unspecified): 2.3
- CCCC(CCC)COC(=O)NCCCn1ccnc1: 0.9
- CCCC(COC(=O)NCCCn1ccnc1)C(C)CC (stereo unspecified): 0.67
- O=C(NCCCn1ccnc1)OCCc1ccccc1: 0.96
- CCCC(CC)OC(=O)NCCCn1ccnc1 (stereo unspecified): 1.7
- CCC(CC)COC(=O)NCCCn1ccnc1: 1.2

###

Tested on: Mus musculus
Assay: Neurotoxicity in albino CF1 mouse assessed as behavioral impairment at 300 mg/kg, ip after 0.5 hrs by rotorod test
Format: toxicity, organism-based
Conditions: in vivo
ENDPOINT NAME: Activity

* CC(C)(C)CCOC(=O)NCCCn1ccnc1 | Toxic
* O=C(NCCCn1ccnc1)OCCc1ccccc1 | Toxic
* CCCC(CC)OC(=O)NCCCn1ccnc1 (centres undefined) | Toxic
* CCC(C)C(C)OC(=O)NCCCn1ccnc1 (centres undefined) | Toxic
* CCCC(COC(=O)NCCCn1ccnc1)C(C)CC (centres undefined) | Toxic
* CCCC(CCC)COC(=O)NCCCn1ccnc1 | Toxic
* CCC(CC)COC(=O)NCCCn1ccnc1 | Toxic
* CC(COC(=O)NCCCn1ccnc1)CC(C)(C)C (centres undefined) | Toxic
* CCCCC(CC)COC(=O)NCCCn1ccnc1 (centres undefined) | Toxic

###

System: Mus musculus
Assay: Neurotoxicity in albino CF1 mouse assessed as behavioral impairment at 30 mg/kg, ip after 0.5 hrs by rotorod test
Format: toxicity, organism-based
Details: in vivo
ENDPOINT NAME: Activity

• CCCC(COC(=O)NCCCn1ccnc1)C(C)CC (stereo not given) = Non-toxic
• CCCCC(CC)COC(=O)NCCCn1ccnc1 (stereo not given) = Non-toxic
• CC(C)(C)COC(=O)NCCCn1ccnc1 = Non-toxic
• CCCC(CCC)COC(=O)NCCCn1ccnc1 = Non-toxic
• O=C(NCCCn1ccnc1)OCCc1ccccc1 = Non-toxic
• CCC(C)C(C)OC(=O)NCCCn1ccnc1 (stereo not given) = Non-toxic
• CCC(CC)COC(=O)NCCCn1ccnc1 = Non-toxic
• CC(C)(C)CCOC(=O)NCCCn1ccnc1 = Non-toxic
• CC(COC(=O)NCCCn1ccnc1)CC(C)(C)C (stereo not given) = Non-toxic
• CCCC(CC)OC(=O)NCCCn1ccnc1 (stereo not given) = Non-toxic

###

Assay: Neurotoxicity in ip dosed albino Sprague-Dawley rat assessed as motor impairment by rotorod test
Assay type: toxicity, organism-based
Conditions: in vivo
Let's look at some compounds and their measured TD50.
ENDPOINT NAME: TD50 (mg/kg)

• CCCC(CC)OC(=O)NCCCn1ccnc1 (centres undefined) = 92
• CCCC(COC(=O)NCCCn1ccnc1)C(C)CC (centres undefined) = 96
• CCCC(CCC)COC(=O)NCCCn1ccnc1 = 87
• CC(COC(=O)NCCCn1ccnc1)CC(C)(C)C (centres undefined) = 70

###

Experiment: Protective index, ratio of TD50 for neurotoxicity in ip dosed albino CF1 mouse to ED50 for anticonvulsant activity in ip dosed 6 Hz current-induced seizure albino CF1 mouse model
Conditions: in vivo
ENDPOINT NAME: selectivity ratio

* CCCC(CC)OC(=O)NCCCn1ccnc1 (centres undefined) | 0.64
* CCCC(C(N)=O)C(C)CC (centres undefined) | 1.8
* CCCC(CCC)COC(=O)NCCCn1ccnc1 | 2
* CC(COC(=O)NCCCn1ccnc1)CC(C)(C)C (centres undefined) | 1.4
